Test Name: NCI Yeast Anticancer Drug Screen. Data for the cln2 rad14 strain (AID 165)
Condition Info: S. cerevisiae cln2 rad14 strain, at 50.0 µM, stronger effect = higher value
This is part of a sample that, as a whole, favours compounds with a hit. Of some 79,000 tested, about 15% had one in any assay.
Response field class: string, computed from recorded growth inhibition by ranges bin A = under 50%, bin B = from 50% up to 90%, bin C = 90% and over

State the band of "O=C(c1ccccc1)N(C1CCCCC1)C1CCCCC1"
bin C

State the band of "O=C1CSC(=S)N1c1cccc(Cl)c1"
bin A

State the band of CCCCCC(C)(O)C#CC(C)(O)CCCCC (stereo not drawn)
bin B

State the band of "O=C(Nc1ccccc1Cl)c1cccnc1"
bin B

State the band of "O=C(Cc1ccccc1)NNc1nc(NNC(=O)c2ccncc2)nc(Nc2ccccc2)n1"
bin A

State the band of CC1C(CCC(=O)O)OC2CC3C4CCC5CC(O)CCC5(C)C4CCC3(C)C21 (stereo not drawn)
bin C

State the band of "Oc1ccc(-c2nnc(-c3ccc(Cl)cc3Cl)o2)cc1"
bin B

State the band of CN1CCCCC1c1cc2c3ccccc3ccn2c1-c1ccccc1 (stereo not drawn)
bin C

State the band of "CN(C)Cc1ccc(C(C)(C)C)cc1-c1cc(C(C)(C)C)ccc1CN(C)C"
bin A

State the band of "[N-]=[N+]=NC1=CC(=O)c2cccc3cccc1c23"
bin B

State the band of "Cn1c(=O)cc2c3c(ccc(C(=O)O)c31)C(=O)c1ccccc1-2"
bin A

State the band of CC1(C)CC(=O)C(CC2C(=O)c3ccccc3C2=O)C(=O)C1C(=O)C(=O)Nc1cccc2ccc(O)cc12 (stereo not drawn)
bin A

State the band of N#CC(CC(Br)CBr)(c1ccccc1)c1ccccc1 (stereo not drawn)
bin A

State the band of "CCN(CC)CCOc1ccc(NC(=S)Nc2ccc(OCC(C)C)cc2)cc1"
bin B

State the band of "CCCOC(=O)CCCC(=O)N(CC)CC"
bin B

State the band of "COc1ccccc1NC(=O)/C(=C/n1c(=S)sc2ccccc21)C(C)=O"
bin B

State the band of ON1CCc2c([nH]c3ccccc23)C1c1ccc(Cl)cc1 (stereo not drawn)
bin B

State the band of "Cc1cc(O)c(C)c(C)c1N=Nc1ccccc1"
bin A

---

Test Name: NCI Yeast Anticancer Drug Screen. Data for the mec2-1 strain (AID 157)
Condition Info: S. cerevisiae mec2-1 strain, at 5.0 µM (retest, dose inferred, filed as 0.5)
The panel holds about 79,000 compounds, 15% with a hit somewhere; the sample as a whole holds those more often. Active and inactive are the calls of the source. No stated cut-off is given here; in the data, active means growth inhibition above about 70%; inactive means the rest.
Respond only with the outcome that fits, drawn from t for active, f for inactive

Give the logged outcome of this assay for the following compound: "COc1ccc(/C=C2/C(=O)ON=C2C)cc1OC"
f

Give the logged outcome of this assay for the following compound: "Cc1ccc2c(c1)-c1c(c3c(c4c1-c1cc(C)ccc1CC4)C(=O)OC3=O)CC2"
f

Give the logged outcome of this assay for the following compound: "O=NNc1ccc2cc3ccc(NN=O)cc3nc2c1"
f

Give the logged outcome of this assay for the following compound: "CCCC/C=C(/CCCCOCOCCOC)[Si](C)(C)C"
f

Give the logged outcome of this assay for the following compound: "Brc1ccc(N=Nc2ccc(-c3ccc[cH-]3)cc2)cc1.[Fe+2].c1cc[cH-]c1"
f

Give the logged outcome of this assay for the following compound: "CCCCCCCCCCCC(=O)Oc1c(Cl)c(Cl)c(C#N)c(Cl)c1Cl"
f

Give the logged outcome of this assay for the following compound: "CC(=O)Nc1c(Cl)ccc2c1Cc1cc([N+](=O)[O-])ccc1-2"
f

Give the logged outcome of this assay for the following compound: "O=c1c2cccc3cccc(c4oc5c6cccc7cccc(c(=O)c5c14)c76)c32"
f

Give the logged outcome of this assay for the following compound: "Cc1cc(Cc2ccccc2)ccc1O"
f

Give the logged outcome of this assay for the following compound: "Nc1cc(=O)[nH]c(=S)[nH]1.[Pd]"
f

Give the logged outcome of this assay for the following compound: O=S1CCS(=O)C1c1ccccc1 (centres undefined)
f

Give the logged outcome of this assay for the following compound: "CCN1CCNc2c3cc(OC)ccc3nc3c([N+](=O)[O-])ccc1c23"
f

Give the logged outcome of this assay for the following compound: "Cc1cc2oc3c(ccc(=O)n3C)c(=O)c2c(C)c1Cl"
f

Give the logged outcome of this assay for the following compound: "ICCCCCCCCCC[n+]1ccc2ccccc2c1"
t

Give the logged outcome of this assay for the following compound: "CC(=O)Nc1cccc(C(=O)O)c1"
f

Give the logged outcome of this assay for the following compound: "Nc1c2c(=O)[nH]c(=O)c2c(N)c2c(=O)c3ccccc3c(=O)c12"
f

Give the logged outcome of this assay for the following compound: CC1/C=C/C=C/CC/C=C/C=C/C=C/C=C/C(OC2OC(C)C(O)C(N)C2O)CC2OC(CC(O)C(O)CCC(O)CC(O)CC(O)CC(=O)OC(C)C(C)C1O)CC(O)C2C(=O)O (centres undefined)
t

Give the logged outcome of this assay for the following compound: C=CCOCC(C)OC(=O)C(C)C (centres undefined)
f

Give the logged outcome of this assay for the following compound: "O=Nc1c(-c2c[nH]c3ccccc23)[nH]c2ccccc12"
f

Give the logged outcome of this assay for the following compound: COc1cccc2c1C(=O)c1c(O)c3c(c(O)c1C2=O)C[C@@](O)(/C(C)=N\NC=O)C[C@@H]3OC1CC(N)C(O)C(C)O1 (some centres undefined)
f

Give the logged outcome of this assay for the following compound: "C#Cc1cccc(N2C(=O)CCC2=O)c1"
f

Give the logged outcome of this assay for the following compound: C=CC(c1ccccc1)[C@@]1(OC(C)=O)C(=O)C(=O)OC1C1COC(C)(C)O1 (some centres undefined)
t

Give the logged outcome of this assay for the following compound: CC(=O)O[C@H]1[C@@H]2CC(C)(C)CC2=C(C=O)C2(C=O)CC12C (some centres undefined)
f

Give the logged outcome of this assay for the following compound: CCc1ccccc1NC(=O)C(C#N)C1=C(Cl)C(=O)c2ccccc2C1=O (centres undefined)
t

Give the logged outcome of this assay for the following compound: "CCNC(=S)N/N=C(/C)c1cccc(/C(C)=N\NC(=S)NCC)n1"
f

Give the logged outcome of this assay for the following compound: "O=C(/C=C/c1ccc(Cl)c(Cl)c1)CCN1CCN(CCC(=O)/C=C/c2ccc(Cl)c(Cl)c2)CC1"
f

Give the logged outcome of this assay for the following compound: "Cc1ccc(/[N+]([O-])=C/c2ccccc2)cc1"
f

Give the logged outcome of this assay for the following compound: C/C(=N/NC(N)=S)C(CN1CCOCC1)C(C1=C(O)c2ccccc2OC1)c1ccccc1 (centres undefined)
f

Give the logged outcome of this assay for the following compound: "Cc1occc1C(=S)Nc1ccc(Cl)c(/C=N/OC(C)C)c1"
f

Give the logged outcome of this assay for the following compound: "O=C(N/C(=C\c1ccc(Br)cc1)c1nc2ccccc2[nH]1)c1ccccc1"
f

Give the logged outcome of this assay for the following compound: "O=C(OCc1ccccc1CN1CCOCC1)c1cccc(Br)c1"
f

Give the logged outcome of this assay for the following compound: "Cc1ccc(C)c(S(=O)(=O)Nc2c([N+](=O)[O-])cc([N+](=O)[O-])c3ccccc23)c1"
f

Give the logged outcome of this assay for the following compound: "NC(=O)c1ccccc1C(=O)O"
f

Give the logged outcome of this assay for the following compound: "Clc1cc2n[nH]nc2c(Cl)c1Cl"
f

Give the logged outcome of this assay for the following compound: "CO/N=C/c1cc(NC(=S)c2ccoc2C)ccc1Cl"
f

Give the logged outcome of this assay for the following compound: O=S(=O)(O)C(O)c1ccc2ccc3cccc4ccc1c2c34 (centres undefined)
f

Give the logged outcome of this assay for the following compound: Cc1c[nH]c(=O)n(CC(=O)C2CCC3C4CCC5=CC(=O)CCC5(C)C4CCC23C)c1=O (centres undefined)
f

Give the logged outcome of this assay for the following compound: O=C(CC(O)(c1ccccc1)c1ccc(Cl)cc1)NC(=O)c1ccccc1O (centres undefined)
f

Give the logged outcome of this assay for the following compound: "O=C1c2ccccc2C(=O)c2c1ccc(O)c2O"
t

Give the logged outcome of this assay for the following compound: "O=C1CC2(CCCC2)C(=O)N1c1ccc(N2C(=O)CC3(CCCC3)C2=O)cc1"
f

Give the logged outcome of this assay for the following compound: N#Cc1cc([N+](=O)[O-])ccc1NC(=O)/C(=N/N)C(C(=O)c1ccc(Cl)c(Cl)c1)C1OC(=O)c2ccccc21 (centres undefined)
f

Give the logged outcome of this assay for the following compound: "N#Cc1ncc(Cl)cc1[N+](=O)[O-]"
t

Give the logged outcome of this assay for the following compound: "CCCCCCCCCCCCc1ccc(S(=O)(=O)O)cc1.[Zn+2]"
f

Give the logged outcome of this assay for the following compound: "CCO/C=C1\N=C(C(O)(c2ccc(Cl)cc2)c2ccc(Cl)cc2)OC1=O"
f
